# TEST SUMMARY: high throughput solubility (HT-Solubility)
# Format: physicochemical
# CONDITION: pH 1, pH 1.0; read-out: HT-Solubility pH 1.0
ASSAY ENDPOINT: solubility (µg/mL)

CHEMICAL SMILES	solubility, µg/mL
CCC(=O)N[C@H](CC(=O)N[C@H](Cc1c[nH]c2ccccc12)C(=O)N[C@@H](CCCCN)CC(=O)NC1CCCC1)Cc1ccccc1	126
C[C@@H](O)[C@@H](CC(N)=O)NC(=O)C[C@H](CCCCN)NC(=O)[C@@H](Cc1c[nH]c2ccccc12)NC(=O)C[C@@H](N)Cc1ccccc1	124

[1] C[C@H]1OC(=O)C[C@H]1NC(=O)C[C@H](CCCCN)NC(=O)[C@@H](Cc1c[nH]c2ccccc12)NC(=O)C[C@H](Cc1ccccc1)NC(=O)CCc1ccccc1
[2] C[C@@H](O)[C@@H](CC(N)=O)NC(=O)C[C@H](CCCCN)NC(=O)[C@@H](Cc1c[nH]c2ccccc12)NC(=O)C[C@H](Cc1ccccc1)NC(=O)C1CCCCC1
Request: I'm curious, which of these has a smaller solubility number: 1 or 2 ? Lab log: write the label of the selected item as the result.
Response: 2
